biological target: HLA-B*57:01; test: IEDB peptide-MHC binding, purified MHC/competitive/fluorescence; filed as Kd, often an IC50 or EC50 that approximates it; bounds were set here for any values at or beyond the usual limits of such assays; conditions: source organism: Homo sapiens
reported_endpoint: Kd

Reported Kd for WLGHPFTPV : what is it?
≥ 20 µM

---
Reported Kd for KMFTYLMES : what is it?
≥ 20 µM

---

biological target: HLA-A*02:01; assay: IEDB peptide-MHC binding, purified MHC/competitive/radioactivity; filed as Kd, often an IC50 or EC50 that approximates it; bounds were set here for any values at or beyond the usual limits of such assays; conditions: source organism: Dengue virus 3 Martinique/1243/1999
reported_endpoint: Kd
For clarity, give the value followed by its unit.

Reported Kd for QLWTALISL : what is it?
1.45 nM
